ASSAY_REMARKS: reducers of endogenous Her2 protein level, primary screen, SKBR3 breast tumor cells, AlphaScreen, ATP viability (AID 461);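 further: percent of carrier control wells set as 100% viability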
EXPERIMENTAL_CONTEXT: 18-24 h, measured here: SKBR3 viability, ATP luminescence, at 10 µM
Assign viability to each entry below.

Reported viability for `COC(=O)c1nc(N)sc1-c1ccccc1` was 96%

Reported viability for `C=CCn1c(COc2cccc(C)c2)nnc1SCC(=O)NC(=O)NCc1ccco1` was 108%

Reported viability for `O=C(CSc1nnnn1C1CCCC1)N1CCN(C(=O)c2ccco2)CC1` was 82%

Reported viability for `CCn1c2ccccc2c2cc(NC(=O)Cc3ccc(S(=O)(=O)N4CCOCC4)s3)ccc21` was 83%

Reported viability for `CCCCOc1ccccc1NC(=O)c1ccco1` was 87%

Reported viability for `COC(=O)c1ccc(C(=O)OC)c(NC(=O)Nc2ccc3c(c2)OCO3)c1` was 86.5%

Reported viability for `Cc1cc2c(cc(C(=O)OCC(=O)NCc3cccs3)n2C(C)C)o1` was 83%

Reported viability for `Cc1ccc(N2C(N)=NC(N)=NC23CCCC3)c(C)c1` was 98.5%

Reported viability for `Cn1nnc2c(sc3nc(N4CCOCC4)c4c(c32)CCCC4)c1=O` was 100%

Reported viability for O=C(NC1CCCCC1)C(c1ccco1)N(Cc1cccnc1)C(=O)C1COc2ccccc2O1 (stereo not given) was 100%

Reported viability for `COc1ccccc1NC(=O)CSc1nnc(-c2ccncc2)o1` was 108%

Reported viability for `CCOC(=O)c1cc2sc(C)cc2n1CC(=O)NCc1ccc(F)cc1` was 65%

Reported viability for `Nc1nonc1-c1noc(-c2ccccc2Br)n1` was 112%

Reported viability for `COc1ccccc1N1CCN(C(=O)c2ccc3nc(-c4ccco4)c(-c4ccco4)nc3c2)CC1` was 103%

Reported viability for `CCOc1cc(NC(=O)c2ccccn2)c(OCC)cc1NC(=O)CC(C)C` was 74%

Reported viability for `COc1ccc(CCNS(=O)(=O)c2ccc3c(c2)CCN3C(=O)CCC(=O)O)cc1OC` was 104%

Reported viability for `Fc1ccc(-c2cnc[nH]2)cc1` was 98.5%

Reported viability for `CCCc1ccc(Oc2cn[nH]c2-c2ccc(O)c(C)c2O)cc1` was 106%

Reported viability for `Cn1c(-c2ccc(C(C)(C)C)cc2)n[nH]c1=S` was 106%

Reported viability for `Nc1nnc(SCCOc2ccccc2)s1` was 86.5%

Reported viability for `COc1cccc(OCCn2ccnc2)c1` was 90.5%

Reported viability for CCC12CN3CC(CC)(CN(C1)C3c1ccc(OC(C)C)cc1)C2=O (stereo not given) was 94%

Reported viability for `Cc1nc(N2CCN(c3ncccn3)CC2)c2oc3ccccc3c2n1` was 85%

Reported viability for `CC(=O)c1ccccc1Oc1nc(CN2CCOCC2)nc2scc(-c3cccs3)c12` was 87.5%

Reported viability for CCn1c(SCC(=O)Nc2ccccc2F)nc2c(c1=O)SC(C)C2 (stereo not given) was 116%

Reported viability for `CN1CCc2nc(SCCOc3ccccc3)c(C#N)cc2C1` was 150%

Reported viability for CCn1ncc(C2=NOC(C(=O)N3CCC(C(N)=O)CC3)C2)c1C (stereo not given) was 104%

Reported viability for `Cc1cc(S(=O)(=O)n2cnc3ccccc32)c(C)cc1Cl` was 86.5%

Reported viability for `Cc1ccc(C(=O)/C=C/Nc2cccc(O)c2)cc1` was 111%

Reported viability for CCOC(=O)N1CCC(NC(=O)c2ccc(OC)c(CN3CC(=O)N4CCCC4C3=O)c2)CC1 (stereo not given) was 93.5%

Reported viability for S=C(NCC1CCCO1)n1nnc2ccccc21 (stereo not given) was 121%

Reported viability for `COc1ccc(N2CCN(C(=O)CCNS(=O)(=O)c3ccc(Br)s3)CC2)cc1` was 64%

Reported viability for `CC(=O)O[C@]1(C(C)=O)CC[C@H]2[C@@H]3C[C@H](C)C4=CC(=O)CC[C@]4(C)[C@H]3CC[C@@]21C` was 153%

Reported viability for `CSC(=O)CC(=O)NC(=O)c1ccccc1` was 102%

Reported viability for `CCOC(=O)c1sc(NC(=O)CSc2n[nH]c(-c3ccccc3)n2)c(C#N)c1C` was 122%

Reported viability for `C=CCSc1nc2c(c(=O)[nH]c(=O)n2C)n1CC` was 78.5%

Reported viability for CC(C)COC(=O)C1C2C=CC3(CN(C(C)c4ccc(Br)cc4)C(=O)C13)O2 (stereo not given) was 114%

Reported viability for `CCN(C(=O)CN1CCN(c2ccccc2OC)CC1)c1c(N)n(Cc2ccccc2)c(=O)[nH]c1=O` was 113%

Reported viability for `O=C(NC1CCCCC1)N(Cc1ccc(F)cc1)Cc1nc2ccccc2c(=O)[nH]1` was 98.5%

Reported viability for `COc1ccccc1-c1coc2c(CN3CCN(CCO)CC3)c(O)ccc2c1=O` was 87.5%

Reported viability for `CCc1nc(N)nc(N)c1-c1ccc(Cl)cc1` was 103%

Reported viability for `Cc1ccc(N(Cc2ccco2)C(=O)c2cccc(S(=O)(=O)N(C)C)c2)cc1` was 97.5%

Reported viability for `CCOc1ccccc1N1C(=O)c2ccc(C(=O)Nc3cccnc3)cc2C1=O` was 94.5%

Reported viability for CCNC(=O)C1CC(=O)N(Cc2ccc3c(c2)OCO3)C(=Nc2ccc(OCC)cc2)S1 (stereo not given) was 94.5%

Reported viability for `CCCCCSc1nc2c(cnn2-c2ccccc2)c(=O)[nH]1` was 99%

Sourced from PubChem BioAssay
